METHOD DESCRIPTION: Pharmacokinetic study in rats
Assay type: in vivo, Sprague-Dawley (SD) rats
CONDITION: female, Sprague-Dawley, rat, oral gavage, 10 mg/Kg, plasma

- MOLECULE: "Cc1c(CN(C)C(=O)/C=C/c2cnc3c(c2)CCC(=O)N3COP(=O)(O)O)oc2ccccc12 [Debio-1450]"
  Tmax: "40.2 min"

* * *

METHOD DESCRIPTION: Pharmacokinetic study in rats
Assay type: in vivo, Sprague-Dawley (SD) rats
CONDITION: female, Sprague-Dawley, rat, oral gavage, 10 mg/Kg, plasma
Method: In this test experiment, a pharmacokinetic study of the compound in rats was conducted. Twelve healthy adult female Sprague-Dawley (SD) rats (purchased from Beijing Vital River Laboratory Animal Technology Co., Ltd., China) with an average body weight of about 180-220 g were selected, and divided into four groups (n=3 per group). Two groups were administered via tail vein injection, while the other two groups were administered via oral gavage. […]
METRIC: half-life (h)

- STRUCTURE: "Cc1c(CN(C)C(=O)/C=C/c2cnc3c(c2)CCC(=O)N3COP(=O)(O)O)oc2ccccc12"
  TEST VALUE: 4.2
